- SUBJECT OF TEST: p53 Y220C (Homo sapiens, UniProt P04637, Y220C)
- TEST METHOD NOTES: Luciferase Reporter Assay (Luc), p53 response element, NClH1299 cells with inducible p53 Y220C
- Type: cell-based
- CONDITION: Emax; luciferase reporter, NClH1299 inducible p53 Y220C, 6 hour
Emax overview

{"MOLECULE": "CNC(=O)c1ccc(NCC#Cc2nc3c(N[C@H]4C[C@H]5COC[C@H](N5)[C@H]4F)cccn3c2SC(F)(F)F)c(OC)c1", "SUBJECT OF TEST": "p53 Y220C (Homo sapiens, UniProt P04637, Y220C)", "Emax": "80 to 90%"}
{"MOLECULE": "CNC(=O)c1cnc(OC)c(NCC#Cc2nc3c(N[C@@H]4CCN(C)C[C@@H]4F)nccn3c2SC(F)(F)F)c1", "SUBJECT OF TEST": "p53 Y220C (Homo sapiens, UniProt P04637, Y220C)", "Emax": "80 to 90%"}
{"MOLECULE": "COc1cc(P(C)(C)=O)ccc1NCC#Cc1cc2c(N[C@@H]3CCNC[C@@H]3F)cccn2c1SC(F)(F)F", "SUBJECT OF TEST": "p53 Y220C (Homo sapiens, UniProt P04637, Y220C)", "Emax": "> 90%"}
{"MOLECULE": "O=C(NCC1(O)CC1)c1ccc(NCC#Cc2cc3c(N[C@@H]4CCNC[C@@H]4F)cccn3c2SC(F)(F)F)cc1", "SUBJECT OF TEST": "p53 Y220C (Homo sapiens, UniProt P04637, Y220C)", "Emax": "> 90%"}
{"MOLECULE": "CNC(=O)c1ccc(OC)c(NCC#Cc2cc3c(N[C@@H]4CCN(C[C@H](C)O)C[C@@H]4F)nccn3c2SC(F)(F)F)c1", "SUBJECT OF TEST": "p53 Y220C (Homo sapiens, UniProt P04637, Y220C)", "Emax": "> 90%"}
{"MOLECULE": "CNC(=O)c1cc(NCC#Cc2nn3c(N[C@@H]4CCN(C)C[C@@H]4F)cccc3c2SC(F)(F)F)c(OC)cn1", "SUBJECT OF TEST": "p53 Y220C (Homo sapiens, UniProt P04637, Y220C)", "Emax": "80 to 90%"}
{"MOLECULE": "CNC(=O)c1ccc(NCC#Cc2cc3c(N[C@@H]4CNC[C@@H]4F)cccn3c2SC(F)(F)F)c(OC)c1", "SUBJECT OF TEST": "p53 Y220C (Homo sapiens, UniProt P04637, Y220C)", "Emax": "80 to 90%"}

====

- SUBJECT OF TEST: p53 Y220C (Homo sapiens, UniProt P04637, Y220C)
- TEST METHOD NOTES: Luciferase Reporter Assay (Luc), p53 response element, NClH1299 cells with inducible p53 Y220C
- Assay type: cell-based
- CONDITION: AC50; luciferase reporter, NClH1299 inducible p53 Y220C, 6 hour; read-out: Luc P53 Y220C AC50

{"MOLECULE": "CN1CC[C@@H](Nc2cccn3c(SC(F)(F)F)c(C#CCNc4ccc(P(C)(C)=O)c5ocnc45)cc23)[C@@H](F)C1", "AC50": "< 750 nM"}
{"MOLECULE": "COc1ccc(C(N)=O)cc1NCC#Cc1nn2c(N[C@@H]3CCN(C)C[C@@H]3F)cccc2c1SC(F)(F)F", "AC50": "< 750 nM"}
{"MOLECULE": "CNC(=O)c1cc(NCC#Cc2nn3c(N[C@@H]4CCN(C)C[C@@H]4F)cccc3c2SC(F)(F)F)c(OC)cn1", "AC50": "< 750 nM"}
{"MOLECULE": "CNS(=O)(=O)c1ccc(NCC#Cc2cc3c(N[C@@H]4CCN(C)C[C@@H]4F)cccn3c2SC(F)(F)F)c(OC)c1", "AC50": "> 3000 nM"}

====

// pIC50 lookup, one value per entry
- System: H1299 p53 Y220C
- TEST METHOD NOTES: Cell Proliferation Assay (CellTiter-Glo, CTG), H1299 p53 Y220C (NClH1299-inducible p53 Y220C)
- Format: cell-based
- CONDITION: Homo sapiens, NCI-H1299, 120 h, CellTiter-Glo, H1299 p53 Y220C, 5 days
pIC50: −log10 of the molar value.

{"COMPOUND": "C=CC(=O)N(C)c1c(C#CCNc2ccc(C(=O)NC)cc2OC)nc2c(N[C@@H]3CCN(C)C[C@@H]3F)cccn12 [Example 26]", "pIC50": "< 5.52"}
{"COMPOUND": "COc1cc(S(C)(=O)=O)ccc1NCC#Cc1nc2c(N[C@@H]3CCN(C)C[C@@H]3F)cccn2c1CC(F)(F)F [Example 1]", "pIC50": "> 6.12"}
{"COMPOUND": "COc1cc(S(C)(=O)=O)ccc1NCC#Cc1nc2c(NC3CCS(=O)(=O)CC3)cccn2c1CC(F)(F)F [Example 4]", "pIC50": "< 5.52"}
{"COMPOUND": "CNc1cc(NC2CCN(C)CC2)c2nc(C#CCNc3ccc(S(C)(=O)=O)cc3OC)c(CC(F)(F)F)n2c1 [Example 33]", "pIC50": "< 5.52"}
{"COMPOUND": "CNC(=O)c1ccc(NCC#Cc2nc3c(N[C@@H]4CCN(C)C[C@@H]4F)cccn3c2SC(F)(F)F)cc1 [Example 163]", "pIC50": "> 6.12"}
{"COMPOUND": "CNC(=O)c1ccc(NCC#Cc2nc3c(N[C@H]4C[C@@H]5CC[C@H]([C@H]4F)N5C)cccn3c2SC(F)(F)F)c(OC)c1 [Example 130]", "pIC50": "> 6.12"}
{"COMPOUND": "CNC(=O)c1ccc(OC)c(NCC#Cc2nc3c(N[C@@H]4CNC[C@@H]4F)cccn3c2SC(F)(F)F)c1 [Example 152]", "pIC50": "> 6.12"}

====

// values below are reported Emax
- SUBJECT OF TEST: p53 Y220C (Homo sapiens, UniProt P04637, Y220C)
- TEST METHOD NOTES: Luciferase Reporter Assay (Luc), p53 response element, NClH1299 cells with inducible p53 Y220C
- Format: cell-based
- CONDITION: Emax; luciferase reporter, NClH1299 inducible p53 Y220C, 6 hour

{"COMPOUND": "CNC(=O)c1ccc(C#N)c(NCC#Cc2nc3c(N[C@@H]4CCN(C)C[C@@H]4F)cccn3c2SC(F)(F)F)c1", "Emax": "> 90%"}
{"COMPOUND": "COc1cc(C(N)=O)ccc1NCC#Cc1nn2c(N[C@@H]3CCN(C)C[C@@H]3F)cccc2c1SC(F)F", "Emax": "> 90%"}
{"COMPOUND": "CNC(=O)c1ccc(OC)c(NCC#Cc2cc3c(N[C@@H]4CCN(C5COC5)C[C@@H]4F)nccn3c2SC(F)(F)F)c1", "Emax": "> 90%"}
{"COMPOUND": "CC(C)(O)CNC(O)c1ccc(NCC#Cc2cc3c(N[C@@H]4CCNC[C@@H]4F)cccn3c2SC(F)(F)F)cc1 (stereo partly drawn)", "Emax": "> 90%"}
{"COMPOUND": "CCNC(=O)c1cnc(OC)c(NCC#Cc2cc3c(N[C@@H]4CCN(C)C[C@@H]4F)nccn3c2SC(F)(F)F)c1", "Emax": "> 90%"}
{"COMPOUND": "COc1cc(C(=O)O)ccc1NCC#Cc1cc2c(N[C@@H]3CCN(C)C[C@@H]3F)cccn2c1SC(F)(F)F", "Emax": "> 90%"}
{"COMPOUND": "COc1cc(S(C)(=O)=O)ccc1NCC#Cc1nn2c(N[C@@H]3CCNC[C@@H]3F)cccc2c1SC(F)(F)F", "Emax": "80 to 90%"}
{"COMPOUND": "CNC(=O)c1ccc(NCC#Cc2cc3c(N[C@@H]4CN(C)C[C@@H]4F)cccn3c2SC(F)(F)F)c(OC)c1", "Emax": "> 90%"}
{"COMPOUND": "CN1CC[C@@H](Nc2cccn3c(SC(F)(F)F)c(C#CCNc4ccc(P(C)(C)=O)nc4)cc23)[C@@H](F)C1", "Emax": "80 to 90%"}
{"COMPOUND": "CNC(=O)c1ccc(OC)c(NCC#Cc2nc3c(N[C@H]4[C@H]5CC[C@@H]4NC5)cccn3c2SC(F)(F)F)c1", "Emax": "80 to 90%"}
{"COMPOUND": "CNC(=O)c1ccc(NCC#Cc2cn3c(N[C@@H]4CCN(C)C[C@@H]4F)cccc3c2SC(F)F)c(OC)c1", "Emax": "> 90%"}
{"COMPOUND": "CNC(=O)c1ccc(NCC#Cc2nc3c(N[C@@H]4CCN(C)C4)cccn3c2SC(F)(F)F)c(OC)c1", "Emax": "80 to 90%"}
{"COMPOUND": "CN1CC[C@@H](Nc2cccn3c(SC(F)(F)F)c(C#CCNc4ccc(P(C)(C)=O)nn4)cc23)[C@@H](F)C1", "Emax": "80 to 90%"}
{"COMPOUND": "O=C(NC[C@H]1COCCO1)c1ccc(NCC#Cc2cc3c(N[C@@H]4CCNC[C@@H]4F)cccn3c2SC(F)(F)F)cc1", "Emax": "> 90%"}
{"COMPOUND": "CNC(=O)c1ccc(NCC#Cc2nc3c(N[C@H]4CCN(C)C4)cccn3c2SC(F)(F)F)c(OC)c1", "Emax": "70 to 80%"}
{"COMPOUND": "CNC(=O)c1ccc(NCC#Cc2nc3c(NC4COC4)cccn3c2SC(F)(F)F)c(OC)c1", "Emax": "80 to 90%"}
{"COMPOUND": "CNC(=O)c1cnc(OC)c(NCC#Cc2nc3c(N[C@@H]4CCNC[C@@H]4F)cccn3c2SC(F)(F)F)c1", "Emax": "70 to 80%"}
{"COMPOUND": "CNC(=O)c1ccc(OC)c(NCC#Cc2nc3c(N[C@@H]4CN(C)C[C@@H]4F)cccn3c2CC(F)(F)F)n1", "Emax": "70 to 80%"}
{"COMPOUND": "CNC(=O)c1ccc(OC[C@@H](C)O)c(NCC#Cc2cc3c(N[C@@H]4CCN(C)C[C@@H]4F)nccn3c2SC(F)(F)F)c1 (single isomer, unassigned)", "Emax": "> 90%"}
{"COMPOUND": "COc1cc(S(C)(=O)=O)ccc1NCC#Cc1cc2c(N[C@@H]3CCN(C)C[C@@H]3F)nccn2c1SC(F)(F)F", "Emax": "> 90%"}
{"COMPOUND": "CNC(=O)c1ccc(NCC#Cc2nc3c(N[C@@H]4C[C@H]5COC[C@H](N5)[C@@H]4F)cccn3c2SC(F)(F)F)c(OC)c1 (relative stereo)", "Emax": "80 to 90%"}
{"COMPOUND": "CN1CCO[C@@H](CNC(=O)c2ccc(NCC#Cc3cc4c(N[C@@H]5CCN(C)C[C@@H]5F)cccn4c3SC(F)(F)F)cc2)C1", "Emax": "80 to 90%"}
{"COMPOUND": "CN1CC[C@@H](Nc2cccn3c(SC(F)(F)F)c(C#CCNc4ccc(C(=O)NCCS(C)(=O)=O)cc4)cc23)[C@@H](F)C1", "Emax": "> 90%"}
{"COMPOUND": "CNC(=O)c1ccc(NCC#Cc2cc3c(N[C@@H]4CCN(C)C[C@@H]4F)cccn3c2SC(F)(F)F)c(OC)n1", "Emax": "> 90%"}
{"COMPOUND": "CNC(=O)c1cc(F)c(OC)c(NCC#Cc2nc3c(N[C@@H]4CCN(C)C[C@@H]4F)cccn3c2SC(F)(F)F)c1", "Emax": "> 90%"}
{"COMPOUND": "CNC(=O)c1cnc(OC)c(NCC#Cc2nn3c(N[C@@H]4CCN(C)C[C@@H]4F)cccc3c2SC(F)F)c1", "Emax": "> 90%"}
{"COMPOUND": "CNC(=O)c1ccc(NCC#Cc2nc3c(N[C@@H]4CCS(=O)(=O)C4)cccn3c2SC(F)(F)F)c(OC)c1", "Emax": "80 to 90%"}
